Test: Nile Red efflux blockade in pump-expressing yeast – validation compound set, multiplex, phenotypic, pilot screen (AID 588506);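 further: Nile Red retained in cells so higher fluorescence means more efflux inhibition; 0 = negative control wells and 1 = enniatin B 25 µM full block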
Settings: S. cerevisiae pump-expressing triplex, Nile Red efflux flow cytometry; at 10 µM; the pumps come from Candida albicans
Active and inactive are the calls of the source.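 How the source made its calls: active means efflux inhibition above 0.42, the validation set average plus 4 SD; inconclusive means no clear call, values can overlap the other calls; inactive means the rest.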
Outcome codes: t for active, f for inactive

>>> print(df.to_string())
                                    compound  category
 0  Cn1cc(CN2CCC(C(=O)N3CCCCC3)CC2)c(-c2ccccc2F)n1         f
 1  CCOC(=O)c1ccc(N2C(=O)C(CC(=O)NC)N(CCc3ccc(OC)c(OC)c3)C2=S)cc1 (stereo not given)         f
 2              S=C(c1ccc2c(c1)OCO2)N1CCCCC1         f
 3              COc1ccc(C2=CC(=O)C=CC2=O)cc1         f
 4  CC1(C)[C@@H](O)CC[C@]2(C)[C@H]3C(=O)C=C4[C@@H]5C[C@@](C)(C(=O)O)CC[C@]5(C)CC[C@@]4(C)[C@]3(C)CC[C@@H]12         f
 5           CSc1cccc(NC(=O)/C=C/c2ccccc2)c1         f
 6     O=C(NC(=S)Nc1ccc2c(c1)OCCO2)c1ccccc1F         f
 7  Cc1oc2cc(O)cc(O)c2c(=O)c1-c1ccc2c(c1)OCCCO2         f
 8  COc1ccc(CCn2c(C)nc3c(c(=O)c4ccccc4n3C)c2=O)cc1         f
 9  CC12CCC(C(=O)NCc3ccccn3)(OC1=O)C2(C)C (stereo not given)         f
10  CC1(C)O[C@@H]2C[C@H]3[C@@H]4C[C@H](F)C5=CC(=O)CC[C@]5(C)[C@H]4[C@@H](O)C[C@]3(C)[C@]2(C(=O)CO)O1         f
11             CCc1nc(N)nc(N)c1-c1ccc(Cl)cc1         f
12                NC(N)=N/N=C/c1cccc(Cl)c1Cl         f
13  CC1(C)Oc2ccc(C#N)cc2[C@@H](N2CCCC2=O)[C@@H]1O         f
14    CC(C)CCc1noc(CN2CCC(CCN3CCCC3=O)CC2)n1         f
15  O=C(/C=C/c1c[nH]c2ccccc12)c1cccc2ccccc12         f
16               CN(C)CCOC(c1ccccc1)c1ccccc1         t
17        Cc1oc2c(O)c(O)ccc2c(=O)c1-c1ccccc1         t
18  COc1ccc2c(c1OC)C(=O)N1C2SC[C@H]1C(=O)NC1CC(C)(C)NC(C)(C)C1 (stereo not given in full)         f
19  NC(=O)[C@@H]1[C@@H]2C(=O)N(c3ccc(F)cc3)C(=O)[C@@H]2[C@H]2C=Cc3ccccc3N21         f
20            Cn1c([N+](=O)[O-])cnc1COC(N)=O         f
21  CC(C)N1C(=O)/C(=C\c2nc3ccccc3c(=O)[nH]2)c2ccccc21         f
22        O=C(O)c1ccc(C(=O)C(=O)c2ccccc2)cc1         f
23  Cc1ccc2nc(NC3=NC(CC(=O)O)C(=O)N3)nc(C)c2c1 (stereo not given)         f
24  COc1cc(C(=O)NCCc2c[nH]c3ccccc23)ccc1OCc1c(C)noc1C         f
25  C[C@@H]1CCC[C@H](C)N1NC(=O)c1ccc(Cl)c(S(N)(=O)=O)c1         t
26                          CC(=O)Nc1ccccc1O         f
27  CC(CN1c2ccccc2Sc2ccccc21)N(C)C (stereo not given)         f
28                 CCOc1ncnc2c1[nH]c1ccccc12         f
29  CC1(C)C(=O)OC(C(=O)c2ccc(Cl)cc2)C(C)(C)C1=O (stereo not given)         f
30  C#CCN1C(=O)C(O)(c2c(C)[nH]c3ccccc23)c2ccccc21 (stereo not given)         f
31   CC(C)N(C(=O)Cc1ccccc1[N+](=O)[O-])C(C)C         f
32           Cc1ccc(C)c(OCCCC(C)(C)C(=O)O)c1         f
33  CCOC(=O)N1c2ccccc2C=CC1OCC (stereo not given)         f
34  COc1ccc(-c2nnc(-c3cc4c(ccc5ccccc54)oc3=O)o2)cc1         f
35  O=C(O)C1[C@H]2C(=O)N(C3CCCC3)C[C@]23C=C[C@H]1O3 (stereo not given in full)         f
36  O=C(CCCN1C(=O)/C(=C\c2cccc(Br)c2)SC1=S)Nc1cccnc1         f
37      O=C(NC1CCCCC1)N1CCc2[nH]c3ccccc3c2C1         f
38      CCOC(=O)c1c(C)oc2c1C(=O)c1ccccc1C2=O         f
39  CN(C)[C@@H]1C(=O)C(C(=O)NCN2CCCC2)=C(O)[C@@]2(O)C(=O)C3=C(O)c4c(O)cccc4[C@@](C)(O)C3CC12 (stereo not given in full)         f
40                          O=C(O)CP(=O)(O)O         f
41  O=C1C(=O)N2C(=C1C(=O)N1CCCCCC1)c1ccccc1CC21CCCC1         f
42       CC(=O)Oc1cc2oc(=O)cc(C)c2cc1OC(C)=O         f
43              CC(=O)c1c[nH]c2ccc(C)cc2c1=O         f
44    CN1CCN(CCCN2c3ccccc3Sc3ccc(Cl)cc32)CC1         f

###

Listed below: vesicle binding response values for each entry.
Experiment: reduced mouse 2C T cell binding to pMHC/ICAM-1 vesicles – MLPCN validation set, flow cytometry, LFA-1/ICAM-1 modulator project, pilot screen (AID 2523);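 further: mean PE anti-B7-1 fluorescence of CD8+ cells relative to row control; 100% = QL9-loaded vesicles with DMSO vehicle in the same plate row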
Conditions: 2C mouse CD8+ T cells, at 7 µM, stronger effect = lower value
Active and inactive are the calls of the source.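 How the source made its calls: active means response below a set limit, under 55% cells CD8-positive and vesicle-bound, and CD8 cells' 90th-percentile brightness under 279; inactive means the rest.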 Square brackets hold non-standard residues; d marks the D form. Peptide text beside a SMILES is read from it. ξ: configuration not given here. ξV = CC(C)C(N)C(=O)O
Parameter measured: vesicle binding response

>>> df
                                    molecule        parameter_measured         obs_value
 0  C=CC1=C(C(=O)O)N2C(=O)C(NC(=O)Cc3ccccc3)C2SC1 (stereo not drawn)  vesicle binding response   134% (inactive)
 1  COc1ccc(CNC(=O)c2c(O)c3cccc4c3n(c2=O)CCC4)cc1  vesicle binding response  18.9% (inactive)
 2  COc1cc(CNCCc2c[nH]c3ccccc23)cc(Cl)c1OCC(N)=O  vesicle binding response   340% (inactive)
 3  CC(=O)Nc1ccc(CN2CCN(C3CCCCC3)C(CCO)C2)cc1 (stereo not drawn)  vesicle binding response   172% (inactive)
 4  CC(=O)NC(C(=O)NCC(N)=O)C(C)C (stereo not drawn) (Ac-[ξV]-Gly-NH2)  vesicle binding response   195% (inactive)
 5    O=C(/C=C/c1ccc2c(c1)OCO2)NCc1ccc(F)cc1  vesicle binding response   130% (inactive)
 6          CCN(CC)CCNC(=O)c1cc(Cl)c(N)cc1OC  vesicle binding response   204% (inactive)
 7         CC(=O)CCc1c(C)c2cccc(C)c2[nH]c1=O  vesicle binding response   269% (inactive)
 8  CCOC(=O)C1(Cc2cccc(Cl)c2)CCCN(C2CCN(C(C)=O)CC2)C1 (stereo not drawn)  vesicle binding response  42.6% (inactive)
 9           CCOCC(=O)Nc1ccccc1C(=O)N1CCOCC1  vesicle binding response   182% (inactive)
10  CC(=O)N(CCC(Cc1ccccc1)c1ccc2c(c1)OCO2)Cc1ccc(Cl)cc1 (stereo not drawn)  vesicle binding response   165% (inactive)
11     CN1CCN(C2=Nc3ccccc3Oc3ccc(Cl)cc32)CC1  vesicle binding response   223% (inactive)
12  CC(C)(C)NCC(O)COc1cccc2c1C[C@H](O)[C@H](O)C2 (stereo partly drawn)  vesicle binding response  1270% (inactive)
13  COC(=O)C1=C(C)N(C)C(=S)NC1c1ccc(Cl)cc1 (stereo not drawn)  vesicle binding response   138% (inactive)
14  COc1ccc(CNCCC2(C(C)C)CCOC(C)(C)C2)cc1 (stereo not drawn)  vesicle binding response  52.5% (inactive)
15  COCCOC(=O)C1=C(N)OC2=C(C(=O)CCC2)C1c1cccnc1 (stereo not drawn)  vesicle binding response  89.9% (inactive)
16  COc1ccc(OC)c(NC2=C(Cl)C(=O)N(Cc3ccccc3)C2=O)c1  vesicle binding response    98% (inactive)
17  COc1ccc2[nH]c(CN3CCN(CC(C)C)C(CCO)C3)c(C)c2c1 (stereo not drawn)  vesicle binding response   231% (inactive)
18  O=C(O)C1[C@H]2C(=O)N(C3CCCC3)C[C@]23C=C[C@H]1O3 (stereo partly drawn)  vesicle binding response   153% (inactive)
19                C#CCOc1ccc2c(C)cc(=O)oc2c1  vesicle binding response   603% (inactive)
20  CC(C)Cc1ccc(C(C)C(=O)O)cc1 (stereo not drawn)  vesicle binding response   141% (inactive)
21  Nc1nc2c(nc(SCc3ccccc3Br)n2C2OC(CO)C(O)C2O)c(=O)[nH]1 (stereo not drawn)  vesicle binding response  50.1% (inactive)
22   CC(C)OC(=O)c1ccc(NC(=O)c2cncc(Br)c2)cc1  vesicle binding response   143% (inactive)

Measured values drawn from PubChem BioAssay for this set.
